- SYSTEM: Histone deacetylase 6 (Homo sapiens, UniProt Q9UBN7)
- Sequence (Q9UBN7 whole entry): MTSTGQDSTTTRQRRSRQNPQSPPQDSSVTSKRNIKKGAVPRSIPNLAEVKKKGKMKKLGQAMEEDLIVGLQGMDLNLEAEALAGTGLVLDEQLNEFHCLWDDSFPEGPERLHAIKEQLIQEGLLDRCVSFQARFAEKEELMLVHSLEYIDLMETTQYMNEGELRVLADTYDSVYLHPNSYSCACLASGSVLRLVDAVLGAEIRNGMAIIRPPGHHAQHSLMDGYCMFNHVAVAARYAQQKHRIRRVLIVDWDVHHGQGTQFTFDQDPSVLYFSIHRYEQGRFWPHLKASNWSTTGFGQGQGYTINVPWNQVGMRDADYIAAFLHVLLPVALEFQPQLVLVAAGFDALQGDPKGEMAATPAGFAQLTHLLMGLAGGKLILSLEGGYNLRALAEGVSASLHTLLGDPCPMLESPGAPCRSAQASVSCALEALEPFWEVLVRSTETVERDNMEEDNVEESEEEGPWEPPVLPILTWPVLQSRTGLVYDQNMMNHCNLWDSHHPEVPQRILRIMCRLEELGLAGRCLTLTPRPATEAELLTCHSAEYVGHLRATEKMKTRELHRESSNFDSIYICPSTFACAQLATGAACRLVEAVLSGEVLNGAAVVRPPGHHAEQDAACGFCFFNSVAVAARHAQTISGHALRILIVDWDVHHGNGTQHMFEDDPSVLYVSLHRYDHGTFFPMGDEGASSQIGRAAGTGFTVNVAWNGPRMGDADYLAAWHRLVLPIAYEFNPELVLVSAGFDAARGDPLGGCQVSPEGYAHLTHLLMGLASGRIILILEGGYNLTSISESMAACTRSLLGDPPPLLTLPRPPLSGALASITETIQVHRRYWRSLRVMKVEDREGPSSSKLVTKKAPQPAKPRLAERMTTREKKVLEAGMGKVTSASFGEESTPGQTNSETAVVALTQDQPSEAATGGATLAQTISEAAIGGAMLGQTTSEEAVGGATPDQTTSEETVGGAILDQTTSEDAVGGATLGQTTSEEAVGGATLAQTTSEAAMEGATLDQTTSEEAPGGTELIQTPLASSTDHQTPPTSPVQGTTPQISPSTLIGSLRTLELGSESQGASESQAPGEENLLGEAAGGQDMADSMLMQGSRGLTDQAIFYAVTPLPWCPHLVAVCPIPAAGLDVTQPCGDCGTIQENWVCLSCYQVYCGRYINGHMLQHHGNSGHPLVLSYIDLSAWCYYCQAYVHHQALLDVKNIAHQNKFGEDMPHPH
- ASSAY SUMMARY: Inhibition of HDAC6 in human HeLa-S3 cell lysates preincubated for 15 mins followed by HDAC-Glo substrate addition measured after 30 to 40 mins by fluorimetric method
ENDPOINT: IC50 (µM)
Answer with a number only, understood to be in µM.

QUERY: Returns the measured IC50 for the input compound. Input: O=C(CCC(CCCC(=O)Nc1ccccc1)c1ccccc1)NO (stereo unspecified)
RESULT: 0.11

----------
- SYSTEM: Histone deacetylase 3 (Homo sapiens, UniProt O15379)
- Sequence (O15379 whole entry): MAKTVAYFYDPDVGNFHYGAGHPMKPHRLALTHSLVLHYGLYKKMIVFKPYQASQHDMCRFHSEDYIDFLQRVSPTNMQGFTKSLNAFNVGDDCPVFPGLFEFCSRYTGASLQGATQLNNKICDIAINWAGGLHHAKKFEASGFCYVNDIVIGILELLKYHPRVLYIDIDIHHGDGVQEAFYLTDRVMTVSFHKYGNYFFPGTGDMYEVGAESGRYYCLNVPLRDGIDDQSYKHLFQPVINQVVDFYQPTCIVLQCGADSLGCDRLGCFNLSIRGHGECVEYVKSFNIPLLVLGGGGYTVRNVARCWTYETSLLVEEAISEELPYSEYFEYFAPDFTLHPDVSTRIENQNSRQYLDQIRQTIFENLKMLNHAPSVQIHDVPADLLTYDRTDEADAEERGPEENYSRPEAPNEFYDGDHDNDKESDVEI
- ASSAY SUMMARY: Inhibition of HDAC3 in human HeLa-S3 cell lysates preincubated for 15 mins followed by HDAC-Glo substrate addition measured after 30 to 40 mins by fluorimetric method
ENDPOINT: IC50 (µM)
Answer with a number only, understood to be in µM.

QUERY: Returns the measured IC50 for the input compound. Input: O=C(CCC(CCCC(=O)Nc1ccccc1)c1ccccc1)NO (stereo unspecified)
RESULT: 23
